Assay comment: Hepatocyte stability (parent drug disappearance in cryopreserved hepatocytes)
Assay type: in vitro ADME, human
Reported conditions: human, cryopreserved human hepatocytes, class symbol; human hepatocytes, 2 μM substrate, 37° C.
Items are presented alongside their recorded half-life at 2 μM.

Query string: May I ask what half-life at 2 μM has been recorded for C[C@H](Nc1nc(N)nc(N)c1C#N)c1nc2cccc(Cl)c2c(=O)n1-c1cccnc1 ?
Result string: > 10 h

Query string: May I ask what half-life at 2 μM has been recorded for N#Cc1c(N)nc(N)nc1N[C@H](c1nc2c(F)ccc(Cl)c2c(=O)n1-c1cccnc1)C1CC1 ?
Result string: > 10 h

Query string: May I ask what half-life at 2 μM has been recorded for CC[C@H](Nc1nc(N)nc(N)c1C#N)c1nc2cccc(Cl)c2c(=O)n1-c1cncc(F)c1 ?
Result string: > 10 h

Query string: May I ask what half-life at 2 μM has been recorded for Cc1cncc(-n2c([C@H](C)Nc3nc(N)nc(N)c3C#N)nc3c(F)ccc(Cl)c3c2=O)c1 ?
Result string: > 10 h

Query string: May I ask what half-life at 2 μM has been recorded for Cc1c(F)cncc1-n1c([C@H](C)Nc2nc(N)nc(N)c2C#N)nc2cccc(Cl)c2c1=O (atropisomer, axis not shown) ?
Result string: 6 to 10 h

Query string: May I ask what half-life at 2 μM has been recorded for CC[C@H](Nc1nc(N)nc(N)c1C#N)c1nc2cccc(Cl)c2c(=O)n1-c1cccnc1 ?
Result string: > 10 h

Query string: May I ask what half-life at 2 μM has been recorded for C[C@H](Nc1nc(N)nc(N)c1C#N)c1nc2cccc(Cl)c2c(=O)n1-c1cncc(C2CC2)c1 ?
Result string: 6 to 10 h

----------
Assay comment: Hepatocyte stability (parent drug disappearance in cryopreserved hepatocytes)
Format: in vitro ADME, human
Reported conditions: human, cryopreserved human hepatocytes, class symbol; human hepatocytes, 2 μM substrate, 37° C.
Items are presented alongside their recorded half-life at 2 μM.

// known answers, use as guide
C[C@H](Nc1nc(N)nc(N)c1C#N)c1nc2cccc(Cl)c2c(=O)n1-c1cncc(F)c1; > 10 h
CC[C@H](Nc1nc(N)nc(N)c1C#N)c1nc2c(F)ccc(Cl)c2c(=O)n1-c1cccnc1; > 10 h
N#Cc1c(N)nc(N)nc1N[C@H](c1nc2c(Cl)ccc(Cl)c2c(=O)n1-c1cccnc1)C1CC1; 6 to 10 h

Query string: May I ask what half-life at 2 μM has been recorded for N#Cc1c(N)nc(N)nc1N[C@H](c1nc2cccc(Cl)c2c(=O)n1-c1cncc(F)c1)C1CC1 ?
Result string: > 10 h

----------
Items are presented alongside their recorded half-life at 2 μM.
Assay comment: Hepatocyte stability (parent drug disappearance in cryopreserved hepatocytes)
Type: in vitro ADME, human
Reported conditions: human, cryopreserved human hepatocytes, class symbol; human hepatocytes, 2 μM substrate, 37° C.

N#Cc1c(N)nc(N)nc1N[C@@H](CC1CC1)c1nc2c(F)ccc(Cl)c2c(=O)n1-c1cccnc1; > 10 h
Cc1ccncc1-n1c([C@H](C)Nc2nc(N)nc(N)c2C#N)nc2cccc(Cl)c2c1=O (atropisomer, axis not shown); > 10 h
C[C@H](Nc1nc(N)nc(N)c1C#N)c1nc2c(Cl)ccc(Cl)c2c(=O)n1-c1cncc(F)c1; 6 to 10 h

Query string: May I ask what half-life at 2 μM has been recorded for C[C@H](Nc1nc(N)nc(N)c1C#N)c1nc2cccc(Cl)c2c(=O)n1-c1cncc(C(F)F)c1 ?
Result string: > 10 h

Query string: May I ask what half-life at 2 μM has been recorded for Cc1ncc(F)cc1-n1c([C@H](C)Nc2nc(N)nc(N)c2C#N)nc2cccc(Cl)c2c1=O (atropisomer, axis not shown) ?
Result string: 3 to 6 h
